Origin of the recorded values: PubChem BioAssay (NCI)

Tested on: A549/ATCC NSCLC
Assay: NCI-60 one-dose screen, 48 h (100 = growth as untreated, 0 = no growth, -100 = all killed)
Settings: 10 µM
The panel holds about 83,000 compounds, 20% with a hit somewhere; the sample as a whole holds those more often.
Rule: Yes for growth not less than 90%, No for anything less.

Solved cases below.
# Compound, Category
data = [
    ("C/C(O)=C(\\C=N\\C(N)=S)C(=O)Nc1ccccc1", "Yes"),
    ("COc1ccccc1N=Nc1c(O)ccc2cc(S(=O)(=O)O)ccc12", "Yes"),
    ("Oc1ccc(O)cc1", "Yes"),
    ("O=C1N(C[P+](c2ccccc2)(c2ccccc2)c2ccccc2)CCCN1C[P+](c1ccccc1)(c1ccccc1)c1ccccc1", "Yes"),
    ("Cc1ccc(C(O)C2CC2)cc1 (stereo unspecified)", "Yes"),
    ("O=[N+]([O-])c1ccc(Sc2ccncn2)c([N+](=O)[O-])c1", "Yes"),
]

Evaluate `C=CCOC(=O)C(=O)OCC=C` : growth at minimum 90%?
Yes

* * *

System: M14 melanoma
Assay: NCI-60 one-dose screen, 48 h (100 = growth as untreated, 0 = no growth, -100 = all killed)
Settings: 10 µM
This is part of a sample that, as a whole, favours compounds with a hit. Of some 83,000 tested, about 20% had one in any assay.
Parameter measured: growth (%)
Express the result in % but write the number alone.

# Smiles notation, Parameter measured, Numeric readout
data = [
    ("O=C(N/N=C\\c1cc(Br)cc(Br)c1O)N/N=C/c1cc(Br)cc(Br)c1O", "growth", 55.2),
    ("C=CC[N+](C)(C)C", "growth", 107),
    ("O=C(O)/C=C/c1ccc2c(c1)CCC2", "growth", 106),
]

Given `O=C1C[C@H](c2ccccc2)[C@H](c2ccccc2)C1` , state its recorded growth.
103

Also `Nc1ccc(N=Nc2ccc(S(=O)(=O)O)cc2)c2ccccc12` ?
99.1

* * *

Reported growth values are given for each entry in this list.
Test system: NCI-H23 lung
Assay: NCI-60 one-dose screen, 48 h (100 = growth as untreated, 0 = no growth, -100 = all killed)
Conditions: 10 µM
Compounds without any hit were thinned out: in the full panel of roughly 83,000, 20% have a hit. Activity calls are given as the source filed them. The calls were made as follows: active = growth percent below 10; inactive = the rest.

# Molecule, growth
records = [
    ("COC(=O)c1[nH]c(=O)c(C#N)c(C(=O)OC)c1C(=O)c1ccccc1", "95.4% (inactive)"),
]

Given `N#CC1(Nc2ccc3c4c(cccc24)CC3)CCCCC1` , state its recorded growth.
93.5% (inactive)

Also `CCOC(=O)c1ccc(Nc2sc(C(=O)c3cccc([N+](=O)[O-])c3)c(N)c2C#N)cc1` ?
34.2% (inactive)

* * *

Test system: OVCAR-5 ovarian
Assay: NCI-60 one-dose screen, 48 h
Settings: 10 µM
About 83,000 compounds went through this panel and 20% of them were active in at least one assay; those are over-represented in the sample as a whole. Calls of active or inactive are those of the source. The calls were made as follows: active = growth percent below 10; inactive = the rest.
In this exercise, the only acceptable responses are active, inactive

Solved cases below.
# Compound, Category
measured = [
    ("COc1ccc(C2(O)CCCCC2)cc1", "inactive"),
    ("Cc1ccncc1C(N)=O", "inactive"),
    ("CC(=O)c1cc2c(cc1F)C(C)(C)CCC2(C)C", "inactive"),
]

Tell me the recorded outcome of this test for O=P(O)(O)OCC(O)CO (stereo not given) .
inactive

Also `NC(=O)N/N=C\c1ccco1` ?
inactive

Also `CC(=O)c1c[nH]c2ccccc12` ?
inactive

Also `Cc1cc(Cc2cc(C)c(N)cc2N)c(N)cc1N` ?
inactive

Also O=C1OC(c2ccc(F)cc2)CC1CN1CCOCC1 (stereo not given) ?
inactive

Also `Nc1nc(OCc2ccccc2)c2[nH]cnc2n1` ?
inactive

Also CC1(C(=O)O)NC(C(=O)O)Cc2c1[nH]c1ccccc21 (stereo not given) ?
inactive

Also `Oc1ccc(O)cc1` ?
inactive

Also `CSC(=N\N=C\c1ccc(N(C)C)cc1)/N=C/N(C)C` ?
inactive

Also `O=[N+]([O-])c1ccc(N=Nc2ccccc2)cc1` ?
inactive

Also `COC1=CC(=O)c2nc(Cl)ccc2C1=O` ?
inactive

Also `CC(=O)c1sc2c(c1OC(=O)c1ccc(Cl)cc1Cl)c(=O)n(-c1ccccc1)c(=S)n2-c1ccccc1` ?
active

Also `CC(=O)OCC(=O)[C@@]1(O)CC[C@H]2[C@@H]3CC[C@@H]4C[C@H](O)CC[C@]4(C)[C@H]3C(=O)C[C@@]21C` ?
inactive

Also `C[C@@H](c1ccccc1)[C@@H](C(=O)O)c1ccccc1` ?
inactive
